Tested on: Human immunodeficiency virus 1
TEST_DESCRIPTION: The concentration required to inhibit HIV-1 RNA synthesis by 90%. Viral RNA quantified by a sandwich hybridization assay
Format: functional
PROTOCOL_CONDITIONS: Human immunodeficiency virus 1

# INPUT_SMILES, IC90 [nM]
rows = [
    ("Cc1ccc(NC(=O)c2cccc(CN3C(=O)N(Cc4cccc(C(=O)Nc5ccc(C)cn5)c4)[C@H](Cc4ccccc4)[C@H](O)[C@@H](O)[C@H]3Cc3ccccc3)c2)nc1", 3.1),
    ("O=C(Nc1ccncc1)c1cccc(CN2C(=O)N(Cc3cccc(C(=O)Nc4ccncc4)c3)[C@H](Cc3ccccc3)[C@H](O)[C@@H](O)[C@H]2Cc2ccccc2)c1", 93.7),
    ("O=C(Nc1ccccn1)c1cccc(CN2C(=O)N(Cc3cccc(C(=O)Nc4ccccn4)c3)[C@H](Cc3ccccc3)[C@H](O)[C@@H](O)[C@H]2Cc2ccccc2)c1", 2.8),
]
